Tested on: T lymphocyte proliferation (murine spleen cells)
Test: Mixed Lymphocyte Reaction (MLR), one-way
Type: cell-based, mice
Conditions: C57B1/6 spleen cells with irradiated BALB/c spleen cells; tritiated thymidine incorporation, 3 days; listed as 258^b
Method: Mixed Lymphocyte Reaction (MLR) Admixture of murine spleen cells from two different inbred strains of mice induces proliferation of T lymphocytes. […] The ability of antagonists to inhibit T lymphocyte proliferation following recognition of alloantigens was assessed in a one-way MLR, where cells from one strain were irradiated to permit measurement of the proliferative response of cells from the other strain. […]
measured.property: pIC50
// pIC50: -log10(molar conc.)

Suppose we examine the molecule Cc1nc(C)c(/C=C(\NC(=O)c2ccc(C(=O)NCc3cccc(O)c3)cc2Br)C(=O)O)s1 ; what pIC50 value has been reported? 5.56

The reported numbers originate from patent US6515124B2.
